- System under test: PIK3CA (human)
// IC50 lookup, one value per entry

CN(C)C(=O)c1ccc(NC(=O)Nc2ccc(-c3nc(N4CCOCC4)c4cc(F)c(-c5cnn(C)c5)cc4n3)cc2F)cc1 | 50 to 200 nM
CN(C)C(=O)c1ccc(NC(=O)Nc2ccc(-c3nc(N4CCOCC4)c4ccc(-c5cccc(S(C)(=O)=O)c5)cc4n3)cc2F)cn1 | < 50 nM
Cc1noc(C)c1-c1ccc2c(N3CCOCC3)nc(-c3ccc(NC(=O)Nc4ccc(C(=O)N5CC[C@H](N(C)C)C5)cc4)c(F)c3)nc2c1 | 50 to 200 nM

Field IC50 (system: PIK3CA (human)) for entry CN(C)C(=O)c1ccc(NC(=O)Nc2ccc(-c3nc(N4CCOCC4)c4ccc(-c5cncc(S(C)(=O)=O)c5)cc4n3)cc2)cc1 = < 50 nM

Field IC50 (system: PIK3CA (human)) for entry CN(C)C(=O)c1ccc(NC(=O)Nc2ccc(-c3nc(N4CCOCC4)c4ccc(-c5ccncc5F)cc4n3)cc2)cc1 = < 50 nM

Field IC50 (system: PIK3CA (human)) for entry CN(C)CCn1cc(-c2ccc3c(N4CCOCC4)nc(-c4ccc(NC(=O)Nc5ccc(C(=O)N(C)C)cc5)cc4)nc3c2)cn1 = 50 to 200 nM

Field IC50 (system: PIK3CA (human)) for entry CN(C)CCNC(=O)c1ccc(-c2ccc3c(N4CCOCC4)nc(-c4ccc(NC(=O)Nc5ccc(C(=O)N(C)C)cc5)cc4)nc3c2)o1 = 50 to 200 nM

Field IC50 (system: PIK3CA (human)) for entry CN(C)C(=O)c1ccc(NC(=O)Nc2ccc(-c3nc(N4CCOCC4)c4ccc(-c5cccc(S(C)(=O)=O)c5)cc4n3)cn2)cc1F = < 50 nM

====

- System under test: PIK3CA (human) (UniProt P42336)
- Sequence (P42336 whole entry, looked up): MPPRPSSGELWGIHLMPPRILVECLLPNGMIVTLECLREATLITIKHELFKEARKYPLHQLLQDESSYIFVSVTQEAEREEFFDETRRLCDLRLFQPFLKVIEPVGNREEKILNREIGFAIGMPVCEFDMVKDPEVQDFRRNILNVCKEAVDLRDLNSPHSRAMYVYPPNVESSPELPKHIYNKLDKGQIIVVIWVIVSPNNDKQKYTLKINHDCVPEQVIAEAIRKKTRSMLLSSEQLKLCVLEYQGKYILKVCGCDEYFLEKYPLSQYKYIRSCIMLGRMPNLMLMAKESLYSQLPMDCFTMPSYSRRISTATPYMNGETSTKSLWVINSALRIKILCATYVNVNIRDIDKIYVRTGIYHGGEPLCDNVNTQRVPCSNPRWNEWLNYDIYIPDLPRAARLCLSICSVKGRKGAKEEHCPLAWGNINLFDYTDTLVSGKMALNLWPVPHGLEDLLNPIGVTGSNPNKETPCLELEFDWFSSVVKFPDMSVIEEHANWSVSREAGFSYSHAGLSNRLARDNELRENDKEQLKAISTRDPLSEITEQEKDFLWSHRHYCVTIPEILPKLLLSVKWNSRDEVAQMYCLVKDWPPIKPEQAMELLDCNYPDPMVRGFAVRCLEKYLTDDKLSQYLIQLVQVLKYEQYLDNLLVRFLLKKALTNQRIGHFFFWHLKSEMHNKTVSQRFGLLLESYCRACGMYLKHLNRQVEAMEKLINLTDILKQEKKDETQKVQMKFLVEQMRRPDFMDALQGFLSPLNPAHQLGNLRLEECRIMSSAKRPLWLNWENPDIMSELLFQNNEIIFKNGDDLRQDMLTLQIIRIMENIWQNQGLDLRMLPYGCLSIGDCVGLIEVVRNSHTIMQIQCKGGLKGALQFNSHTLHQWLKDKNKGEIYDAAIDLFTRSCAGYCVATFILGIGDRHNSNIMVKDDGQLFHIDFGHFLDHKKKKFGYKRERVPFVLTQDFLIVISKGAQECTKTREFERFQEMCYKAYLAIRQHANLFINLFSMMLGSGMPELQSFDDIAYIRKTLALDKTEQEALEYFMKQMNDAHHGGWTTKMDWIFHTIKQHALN
pIC50: −log10 of the molar value.
Measured attribute: pIC50

CN(C)C(=O)c1ccc(NC(=O)Nc2ccc(-c3nc(N4CCOCC4)c4ccc(-c5cccnc5F)cc4n3)cn2)cc1 | > 7.30
Cc1ccc(-c2ccc3c(N4CCOC(C)C4)nc(-c4ccc(NC(=O)Nc5ccc(C(=O)N(C)C)cc5)cc4)nc3c2)o1 (stereo not drawn) | 6.70 to 7.30

Turning to the following compound.
# pIC50 (compound: CN(C)C(=O)c1ccc(NC(=O)Nc2ccc(-c3nc(N4CCOCC4)c4cc(F)c(-c5cnn(C)c5)cc4n3)cn2)cc1 ) is > 7.30

====

- System under test: PIK3CA (human), P42336 [H1047R]
- Sequence (P42336 whole entry H1047R, looked up): as the sequence (P42336 whole entry, looked up) above, with H1047R counted along it
- Measurement description: Assessment of PIK3CA(H1047R) Kinase Activity
pIC50: −log10 of the molar value.
// pIC50 lookup, one value per entry

Field pIC50 (system: PIK3CA (human), P42336 [H1047R]) for entry CN(C)C(=O)c1ccc(NC(=O)Nc2ccc(-c3nc(N4CCOCC4)c4ccc(-c5cccc(S(C)(=O)=O)c5)cc4n3)cn2)cc1F = > 7.30

Field pIC50 (system: PIK3CA (human), P42336 [H1047R]) for entry CN(C)C(=O)c1ccc(NC(=O)Nc2ccc(-c3nc(N4CCOCC4)c4ncc(-c5cccc(S(C)(=O)=O)c5)cc4n3)cc2F)cc1 = > 7.30

====

// pIC50 lookup, one value per entry
- System under test: PIK3CA (human), P42336 [H1047R]
- Measurement description: Assessment of PIK3CA(H1047R) Kinase Activity
pIC50: −log10 of the molar value.

CN(C)C(=O)c1ccc(NC(=O)Nc2ccc(-c3nc(N4CCOCC4)c4ncc(-c5cccnc5F)cc4n3)cn2)cc1 | > 7.30

Field pIC50 (system: PIK3CA (human), P42336 [H1047R]) for entry CN(C)C(=O)c1ccc(NC(=O)Nc2ccc(-c3nc(N4CCOCC4)c4ccc(-c5cccnc5F)cc4n3)cc2)c(F)c1 = 6.30 to 7.30

Field pIC50 (system: PIK3CA (human), P42336 [H1047R]) for entry CN(C)C(=O)c1ccc(NC(=O)Nc2ccc(-c3nc(N4CCOCC4)c4ncc(-c5cccc(S(C)(=O)=O)c5)cc4n3)cn2)cc1 = > 7.30

Field pIC50 (system: PIK3CA (human), P42336 [H1047R]) for entry CN(C)C(=O)c1ccc(NC(=O)Nc2ccc(-c3nc(N4CCOCC4)c4ccc(-c5cncnc5)cc4n3)cc2)c(F)c1 = 6.30 to 7.30
